These data points were gathered from patent US20140235568A1.

List of melting point values.
property: melting point (°C)

| compound | property | unitSpec | obsValue |
| --- | --- | --- | --- |
| O=C(CCCc1ccccc1)Nc1ccn([C@@H]2O[C@H](CO)C(O)C2(F)F)c(=O)n1 (stereo partly drawn) [SYN-141, N^4-(4-phenyl)butyryl Gemcitabine] | melting point | °C | 111 |
| CCCCC(=O)Nc1ccn([C@@H]2O[C@H](CO)C(O)C2(F)F)c(=O)n1 (stereo partly drawn) [SYN-147, N^4-n-valeryl Gemcitabine Gemcitabine] | melting point | °C | 184 |
| CCCC(=O)Nc1ccn([C@@H]2O[C@H](CO)C(O)C2(F)F)c(=O)n1 (stereo partly drawn) [SYN-140, N^4-n-butyryl gemcitabine] | melting point | °C | 198 |
| CCCCCCCC(=O)Nc1ccn([C@@H]2O[C@H](CO)C(O)C2(F)F)c(=O)n1 (stereo partly drawn) [SYN-165, N^4-n-octanoyl Gemcitabine] | melting point | °C | 139 |

* * *

# Test system: ZR-75-30 (human breast cancer cell)
# assayExplanation: MTT assay, in vitro inhibition of proliferation of human tumor cells
# Assay type: cell-based
# cond: Homo sapiens, ZR-75-30, 72 h
Recorded measurements of IC50, one per entry

| molecule | IC50 (µg/mL) |
| --- | --- |
| CCCCCCCC(=O)Nc1ccn([C@@H]2O[C@H](CO)C(O)C2(F)F)c(=O)n1 (stereo partly drawn) [SYN-165, N^4-n-octanoyl Gemcitabine] | 0.135 |
| CCCC(=O)Nc1ccn([C@@H]2O[C@H](CO)C(O)C2(F)F)c(=O)n1 (stereo partly drawn) [SYN-140, N^4-n-butyryl gemcitabine] | 3.01 |
| Nc1ccn([C@@H]2O[C@H](CO)[C@@H](O)C2(F)F)c(=O)n1 | 0.454 |
| CCCCC(=O)Nc1ccn([C@@H]2O[C@H](CO)C(O)C2(F)F)c(=O)n1 (stereo partly drawn) [SYN-147, N^4-n-valeryl Gemcitabine Gemcitabine] | 1.13 |
| O=C(CCCc1ccccc1)Nc1ccn([C@@H]2O[C@H](CO)C(O)C2(F)F)c(=O)n1 (stereo partly drawn) [SYN-141, N^4-(4-phenyl)butyryl Gemcitabine] | 4.7 |
| CCCC(CCC)C(=O)Nc1ccn([C@@H]2O[C@H](CO)[C@@H](O)C2(F)F)c(=O)n1 [LY-2334737, N4-valproyl gemcitabine, reference compound] | 29.3 |

* * *

# Test system: ZR-75-30 (human breast cancer cell)
# assayExplanation: MTT assay, in vitro inhibition of proliferation of human tumor cells
# Format: cell-based
# cond: inhibition at 100 μg/ml, 72 h
Parameter ZR-75-30 100 μg/ml IC %: see the listing below.

| compound | ZR-75-30 100 μg/ml IC % [%] |
| --- | --- |
| O=C(CCCc1ccccc1)Nc1ccn([C@@H]2O[C@H](CO)C(O)C2(F)F)c(=O)n1 (stereo partly drawn) [SYN-141, N^4-(4-phenyl)butyryl Gemcitabine] | 91.63 |
| CCCC(=O)Nc1ccn([C@@H]2O[C@H](CO)C(O)C2(F)F)c(=O)n1 (stereo partly drawn) [SYN-140, N^4-n-butyryl gemcitabine] | 89.52 |
| CCCCC(=O)Nc1ccn([C@@H]2O[C@H](CO)C(O)C2(F)F)c(=O)n1 (stereo partly drawn) [SYN-147, N^4-n-valeryl Gemcitabine Gemcitabine] | 90.22 |
